system: UACC-62 melanoma; test: NCI tumour cell line growth inhibition, 48 h
Would you kindly list TGI for each of these molecules?

Prompt line: Form field: reported TGI of "Nn1c(CNc2ccc(-c3nnc(Nc4ccc(Cl)cc4)n3N)cc2)nnc1Nc1ccc(Cl)cc1"
Response line: > 100 µM

Prompt line: Form field: reported TGI of "NNC(N)=Nc1cccc2ccccc12"
Response line: > 100 µM

Prompt line: Form field: reported TGI of "N#Cc1ccc(Oc2nccc(-c3c(-c4ccc(F)cc4)ncn3C3CCNCC3)n2)cc1"
Response line: > 25 µM

Prompt line: Form field: reported TGI of "CCOC(=O)/C(C(=S)NC)=C(/N)N1CCCC1"
Response line: > 100 µM

Prompt line: Form field: reported TGI of "Clc1ccc(-c2nc3c(-c4ccc(Cl)cc4)nc(-c4ccccc4)cn3c2-c2ccc(Cl)cc2)cc1"
Response line: > 50 µM

Prompt line: Form field: reported TGI of "OC(c1cc(C(O)(C(F)(F)F)C(F)(F)F)ncn1)(C(F)(F)F)C(F)(F)F"
Response line: > 10 µM

Prompt line: Form field: reported TGI of COC(=O)C(C(=O)C(=O)Nc1cccc(O)c1)c1nc2ccc(Cl)cc2[nH]c1=O (stereo unspecified)
Response line: > 100 µM

Prompt line: Form field: reported TGI of "COc1ccc(/C=C2/C(=O)N(C(=O)c3ccccc3O)N=C2C)cc1OC"
Response line: 0.591 µM

Prompt line: Form field: reported TGI of "CC1=NN(c2nc(N)nc(CS(C)(=O)=O)n2)C(C)(C)C1"
Response line: > 100 µM

Prompt line: Form field: reported TGI of "Cc1csc2c(P(=O)(OC(C)C)OC(C)C)c(-c3ccccc3)cn12"
Response line: 20 µM

Prompt line: Form field: reported TGI of "COc1ccc2nc(-c3ccc(OC(=O)N(C)C)cc3)cn2c1"
Response line: > 100 µM

Prompt line: Form field: reported TGI of "CCCCCCN(CCCCCC)CCCNc1nccc2ccccc12"
Response line: 3.41 µM

Prompt line: Form field: reported TGI of "O=C1Cc2cc(CCn3ccnc3)c(Cl)cc2N1"
Response line: > 100 µM

Prompt line: Form field: reported TGI of "COC(=O)/C(C#N)=C\N1CCN(C(=O)c2ccco2)C1=S"
Response line: 27.2 µM

Prompt line: Form field: reported TGI of "CSC1=N/C(=C\c2cccs2)C(=O)N1CN1CCOCC1"
Response line: > 100 µM

Prompt line: Form field: reported TGI of "COc1cc(/C=C/C(=O)C(=Cc2ccc(F)c(F)c2)C(=O)/C=C/c2ccc(O)c(OC)c2)ccc1O"
Response line: 5.14 µM

Prompt line: Form field: reported TGI of "CCOc1ccc(Cc2nccc3cc(OCC)c(OCC)cc23)cc1OCC"
Response line: 16.5 µM

Prompt line: Form field: reported TGI of "CCN(CC)CCn1ncc2ccc3c(c(=O)c4cccnc4n3CCN(CC)CC)c21"
Response line: 5.15 µM

Prompt line: Form field: reported TGI of "CCN(CC)CCN1c2ccccc2Sc2ccc3ccccc3c21"
Response line: 22 µM

Prompt line: Form field: reported TGI of C=CCN1C(=O)/C(=c2\sc3n(c2=O)C2C(NN=3)N(CC)C(=O)N2CC)c2ccccc21 (stereo unspecified)
Response line: > 62.1 µM

Prompt line: Form field: reported TGI of "O=C1/C(=C/c2ccc(O)cc2)NC(=S)N1CN1CCCCC1"
Response line: > 100 µM

Prompt line: Form field: reported TGI of "O=C1CCCCC/C=C2/CC[C@H](Sc3ccccc3)[C@@H]12"
Response line: > 100 µM

Prompt line: Form field: reported TGI of "O=c1[nH]c(=S)[nH]c2c1sc(=S)n2-c1ccccc1"
Response line: > 100 µM

Prompt line: Form field: reported TGI of "Cc1ccc2nc3c(Cl)cc(=O)cc-3sc2c1"
Response line: 31.8 µM

Prompt line: Form field: reported TGI of "ON=C1CCCCC(=NO)CCCC1"
Response line: > 100 µM

Prompt line: Form field: reported TGI of COc1c(OC(C)=O)cc2c(OC(C)=O)c1CC(C)CC(OC)C(O)C(C)/C=C(\C)C(OC(N)=O)C(OC)/C=C\C=C(/C)C(=O)N2 (stereo unspecified)
Response line: > 100 µM

Prompt line: Form field: reported TGI of "Cc1cc2c3ccccc3n(C)c2c2c1C(=O)c1ccccc1C2=O"
Response line: 57.3 µM

Prompt line: Form field: reported TGI of "O=C(c1cc(=O)c2ccc(O)cc2o1)c1ccc(Cl)cc1Cl"
Response line: > 100 µM

Prompt line: Form field: reported TGI of "CC(=O)CC(=O)CCCC(=O)Nc1ccc(Cl)cc1C"
Response line: > 100 µM

Prompt line: Form field: reported TGI of "Cc1c2ccccc2c(C)c2c3c(ccc12)C(=O)C=CC3=O"
Response line: > 100 µM

Prompt line: Form field: reported TGI of "COc1ccc(Nc2c3ccccc3nc3c2c2ccccc2n3C)cc1"
Response line: 41.5 µM

These measurements were taken from PubChem BioAssay (NCI).
